Tested on: COLO 205
EXPERIMENT SUMMARY: NCI tumour cell line growth inhibition, 48 h
Active and inactive are the calls of the source. Rule as the data show it: active = GI50 up to about 1.1 µM and inactive = higher.
Possible outcomes: active, inactive

INSERT INTO measurements (compound, assigned_class) VALUES
  ('CCOC(=O)N(c1ccccc1)c1cc(=O)n2ccccc2n1', 'inactive'),
  ('O=[N+]([O-])c1c(F)c(F)c2c(c1F)Nc1ccccc1S2', 'inactive'),
  ('O=C1C=C(N2CCN(CCOCCO)CC2)C(=O)c2c(O)ccc(O)c21', 'inactive'),
  ('CCCC(=O)Nc1ccc(O)c2c1C1CCCCCC21 (stereo unspecified)', 'inactive'),
  ('O=c1[nH]c2nc3ccccc3c(=O)n2/c1=C/c1ccccc1', 'inactive'),
  ('COC(=O)NC1(NC(=O)OC)NC(=O)c2cc(OC)c(OC)cc2N1', 'inactive'),
  ('COc1ccc(CNc2nc3ccc(C(F)(F)F)cc3nc2-c2ccccc2)cc1OC', 'inactive'),
  ('CC(N)Cc1cccc(C(F)(F)F)c1 (stereo unspecified)', 'inactive'),
  ('COc1cc2oc(=O)cc(C)c2c(OC)c1O', 'inactive'),
  ('O=C(NNC(=S)NCc1ccccc1)c1csc(NC(=S)NC2CCCCC2)n1', 'inactive'),
  ('COc1ccc(/C=C2\CN(C)C/C(=C\c3ccc(OC)cc3)C2=O)cc1', 'inactive'),
  ('CN(C)/C=N/S(=O)(=O)c1nn2c(C=O)c(-c3ccc(-c4ccccc4)cc3)nc2s1', 'inactive'),
  ('C=CCN1C(=O)C(=O)N(CC=C)C(=O)C1=O', 'inactive'),
  ('Cc1nnc2sc(-c3ccc(-c4ccccc4Cl)o3)nn12', 'inactive'),
  ('CSc1cnn(CCC#N)c(=O)n1', 'inactive'),
  ('O=C(O)c1cc2c(cc1S(=O)(=O)O)C1C(C3C2C2(Cl)C(Cl)=C(Cl)C3(Cl)C2(Cl)Cl)C2(Cl)C(Cl)=C(Cl)C1(Cl)C2(Cl)Cl (stereo unspecified)', 'inactive'),
  ('CCCCCCCCCCCC(=O)CC(=O)c1c(O)cccc1O', 'inactive'),
  ('O=C(/C(=C\C(=O)c1cccs1)c1ccsc1)c1ccc(Br)cc1', 'inactive'),
  ('CCCc1c2c3ccccc3nc-2nc2ccccn12', 'inactive'),
  ('CC(O)CCCOC(c1ccccc1)(c1ccccc1)c1ccccc1 (stereo unspecified)', 'inactive'),
  ('O=C1CCSc2nc(-c3ccc4c(c3)OCO4)nn21', 'inactive'),
  ('C#CCNC(=O)NCCCC(NC(C)=O)C(=O)NCc1ccccc1 (stereo unspecified)', 'inactive'),
  ('N#Cc1c(Cl)c2ccccc2n2c1nc1ccccc12', 'inactive'),
  ('C/C(=N\NC(=S)NC1CCCC1)c1ccccn1', 'active'),
  ('COC1CCC(OS(C)(=O)=O)C(C)O1 (stereo unspecified)', 'inactive'),
  ('CCCCCCOc1ccc(C(=O)NO)cc1', 'inactive');

###

Each entry below carries its reported GI50.
Test system: NCI/ADR-RES
EXPERIMENT SUMMARY: NCI tumour cell line growth inhibition, 48 h
Activity calls are given as the source filed them. No stated cut-off is given here; in the data, active = GI50 up to about 1.1 µM and inactive = higher.
ASSAY ENDPOINT: GI50

INSERT INTO measurements (compound, assay_endpoint, measured_result) VALUES
  ('COC(=O)CCC(=O)NC1=C(Nc2ccc(OC)cc2)C(=O)c2ccccc2C1=O', 'GI50', '16.3 µM (inactive)'),
  ('Cc1nc2c(-c3ccccc3)[nH]c(C)c2c(=O)o1', 'GI50', '> 100 µM (inactive)'),
  ('O=C1CCC2=C(CCC2)N1CCc1ccc2c(c1)OCO2', 'GI50', '43 µM (inactive)'),
  ('COc1cc(NC(C)CCCN)c2nccc(C)c2c1 (centres undefined)', 'GI50', '11.6 µM (inactive)');

###

Tested on: HT-29
EXPERIMENT SUMMARY: NCI tumour cell line growth inhibition, 48 h
Calls of active or inactive are those of the source. Rule as the data show it: active = GI50 up to about 1.1 µM and inactive = higher.
ASSAY ENDPOINT: GI50

INSERT INTO assay_data (compound, measurement_target, assay_endpoint, measured_result) VALUES
  ('Cc1ccc2c(c1)C(=O)N1CCC[C@H]1C=N2', 'HT-29', 'GI50', '15.4 µM (inactive)'),
  ('O=C1CCSc2nc(-c3ccc4c(c3)OCO4)nn21', 'HT-29', 'GI50', '> 10 µM (inactive)'),
  ('CC(C)(C)c1ccccc1N1C(=O)c2ccc3c4c(ccc(c24)C1=O)N(c1ccccc1C(C)(C)C)C3=O', 'HT-29', 'GI50', '> 100 µM (inactive)'),
  ('O=C(/C=C1/Nc2ccc([N+](=O)[O-])cc2N/C1=C/C(=O)c1ccccc1)c1ccccc1', 'HT-29', 'GI50', '71.1 µM (inactive)'),
  ('COc1ccc(OC)c(-c2nc(O)c3ccccc3n2)c1', 'HT-29', 'GI50', '> 100 µM (inactive)'),
  ('O=S(=O)(N=S(c1ccccc1)c1ccccc1)c1ccccc1', 'HT-29', 'GI50', '> 100 µM (inactive)'),
  ('CC1=NN(c2cccc(Cl)c2)C2(C1=Cc1ccc(O)cc1)C(Cl)C(=O)N2c1nc2ccccc2s1 (centres undefined)', 'HT-29', 'GI50', '21.7 µM (inactive)'),
  ('O=C1C=C2CCCC2C(C(=O)O)(C(=O)O)C1 (centres undefined)', 'HT-29', 'GI50', '> 100 µM (inactive)'),
  ('O=S(=O)(c1ccccc1)n1c(C(O)c2ccncc2)cc2ccccc21 (centres undefined)', 'HT-29', 'GI50', '44.6 µM (inactive)'),
  ('Fc1cccc2c1cc1ccc3cccc4ccc2c1c34', 'HT-29', 'GI50', '> 100 µM (inactive)'),
  ('OCCN(CCO)c1ccc2c(C(F)(F)F)cc(C(F)(F)F)nc2n1', 'HT-29', 'GI50', '> 100 µM (inactive)'),
  ('COc1ccc2c(c1)Cc1c-2[nH]c2cc3c(cc2c1=O)OCO3', 'HT-29', 'GI50', '6.44 µM (inactive)'),
  ('CN(C)CCC[N+]1=Nc2cccc3cccc(c23)N1', 'HT-29', 'GI50', '33.6 µM (inactive)'),
  ('Cc1cc(C)nc(NS(=O)(=O)c2ccc(Nc3c4ccccc4nc4c(C(=O)NNCCO)cccc34)cc2)n1', 'HT-29', 'GI50', '> 100 µM (inactive)'),
  ('CC(C)Oc1ccc2c(c1)OCC1Cc3ccccc3OC21 (centres undefined)', 'HT-29', 'GI50', '41.4 µM (inactive)'),
  ('C/C(=C1/CCCC2(N=NCC2c2ccccc2)C1=O)c1ccccc1 (centres undefined)', 'HT-29', 'GI50', '20.5 µM (inactive)'),
  ('Cc1cc2c(O)nc(N)nc2nc1C', 'HT-29', 'GI50', '> 100 µM (inactive)'),
  ('O=c1nc(N2CCCCC2)sc2[nH]c3ccccc3c12', 'HT-29', 'GI50', '62.4 µM (inactive)'),
  ('Cn1c(=O)c2c(nc(NCCCCl)n2CC(=O)O)n(C)c1=O', 'HT-29', 'GI50', '> 100 µM (inactive)'),
  ('CCOC(=O)/C(C#N)=C/c1coc2cc(C)cc(C)c2c1=O', 'HT-29', 'GI50', '> 100 µM (inactive)'),
  ('C=CC1ON(C)CCc2cc(OC)c(OC)cc21 (centres undefined)', 'HT-29', 'GI50', '> 100 µM (inactive)'),
  ('O=C(O)/C=C/c1ccc2c(c1)CC1(Cc3ccccc3C1)C2', 'HT-29', 'GI50', '39.8 µM (inactive)'),
  ('COc1ccc2c(c1)CCN1CCCc3ccc(OC)cc3C21 (centres undefined)', 'HT-29', 'GI50', '31.7 µM (inactive)'),
  ('Cc1cc(OC(=O)Nc2cccc3ccccc23)c(C(C)C)cc1C(=S)Nc1ccccc1', 'HT-29', 'GI50', '18.7 µM (inactive)');

###

System: MDA-MB-435
EXPERIMENT SUMMARY: NCI tumour cell line growth inhibition, 48 h
Calls of active or inactive are those of the source. Rule as the data show it: active = GI50 up to about 1.1 µM and inactive = higher.
Possible outcomes: Y for active, N for inactive

INSERT INTO assay_data (molecule, assigned_class) VALUES
  ('CNC(=O)OCc1c(COC(=O)NC)c(C)n(-c2ccc(Br)cc2)c1C', 'N'),
  ('O=c1[nH]c2nc3ccccc3c(=O)n2/c1=C/c1ccccc1', 'N'),
  ('CC(=O)C1=C(N=[N+]=[N-])c2cccc3cccc(c23)C1=O', 'N'),
  ('O=C(NCP(=O)(Oc1ccccc1)Oc1ccccc1)OCc1ccccc1', 'N'),
  ('COc1ccc(SC(C)(SC)c2ccccn2)c(OC)n1 (stereo not drawn)', 'N'),
  ('Cc1ccc2c(c1)C(=O)N1CCC[C@H]1C=N2', 'N'),
  ('Clc1ncc(Cl)c(Cl)n1', 'N'),
  ('NC(=O)NC(CC(=O)O)C(=O)O (stereo not drawn)', 'N'),
  ('COc1ccc(/C=C2\C(=O)N(C3OC(COC(C)=O)C(OC(C)=O)C(OC(C)=O)C3OC(C)=O)c3ccccc3N=C2N)cc1 (stereo not drawn)', 'N'),
  ('O=C1Cc2c(-c3ccccc3)cc(-c3ccc4ccccc4c3)nc2-c2ccccc2N1', 'N'),
  ('Clc1cc(-c2csc(Cl)c2)cs1', 'N'),
  ('CC(C(N)=O)N(C)C(=O)c1cnc2ccccc2c1 (stereo not drawn)', 'N'),
  ('COc1ccc(C[C@@H]2NC[C@@H](O)[C@@H]2OC(C)=O)cc1', 'Y'),
  ('C=CCCC1(CC(Sc2ccccc2)P(=O)(c2ccccc2)c2ccccc2)OCCO1 (stereo not drawn)', 'N'),
  ('COc1ccc(N2C(=O)C3c4[nH]c5ccc(C)cc5c4C4CCC(C(C)C)CC4C3C2=O)cc1 (stereo not drawn)', 'N'),
  ('CCOC(=O)C1=C(N)N(c2ccccc2)/C(=C2\SC(=S)N(c3ccc(C)cc3)C2=O)S1', 'N'),
  ('CCn1c(=O)c2c3cc(O)ccc3oc2c2ccc(O)cc21', 'N'),
  ('O=C1CC2CC(CC3(CO3)C2)C1F (stereo not drawn)', 'N'),
  ('CSC1=C(C#N)C(=O)N(c2ccc(Cl)cc2)C(=O)C1C#N (stereo not drawn)', 'N'),
  ('O=C(O)c1ccccc1C1CCCc2c1[nH]c1ccccc21 (stereo not drawn)', 'N'),
  ('CC(C)(C)C1CCC2c3c([nH]c4ccccc34)C3C(=O)N(c4ccc5c(c4)C(=O)c4ccccc4C5=O)C(=O)C3C2C1 (stereo not drawn)', 'N'),
  ('CN(CCN1CCCC1)C1CCc2cc(Cl)c(Cl)cc2C1 (stereo not drawn)', 'N'),
  ('C=C1C[C@@H]2O[C@H]3[C@H]4[C@@H](C[C@@H](C)[C@@H](OC(C)=O)[C@H]42)[C@@H](C)CO[C@@]3(C)[C@H](OC(C)=O)C[C@H]1O', 'N'),
  ('NC(=O)SCC(=O)Nc1ccc2ncccc2c1', 'N'),
  ('CCOC(=O)c1nc2cc(F)c(F)cc2nc1NCc1cc(OC)c(OC)c(OC)c1', 'N'),
  ('Cc1ccc2c(=O)c(-c3n[nH]c(=S)s3)c[nH]c2n1', 'N'),
  ('CC(C)(C)c1ccccc1N1C(=O)c2ccc3c4c(ccc(c24)C1=O)N(c1ccccc1C(C)(C)C)C3=O', 'N'),
  ('Cc1cccc(/C=N/NC(=S)NCc2ccccn2)n1', 'N');
